- Tested on: NCI-H460
- assaySummary: Cytotoxicity against human NCI-H460 cells after 3 days by MTT assay
- Format: functional, cell-based
- assaySetup: NCI-H460, 72 h
Counter-ions that a name gives are not always drawn.
This listing pairs compounds with measured IC50.
Answer format: numeric, nM implied, no suffix.

CN1CCN(c2nc(SCc3nc4ccccc4[nH]3)nc(-c3ccccc3)c2C#N)CC1 :: 2.84
N#Cc1c(Nc2ccncc2)nc(SCc2nc3ccccc3[nH]2)nc1-c1ccccc1 :: 2.77
N#Cc1c(-c2ccccc2)nc(SCc2nc3ccccc3[nH]2)nc1N1CCN(S(=O)(=O)c2ccccc2)CC1 :: 4.6
N#Cc1c(NC(N)=O)nc(SCc2nc3ccccc3[nH]2)nc1-c1ccccc1 :: 14.7

IN: Quick one: IC50 for `N#Cc1c(-c2ccccc2)nc(SCc2nc3ccccc3[nH]2)nc1N1CCN(C(=O)c2ccc([N+](=O)[O-])cc2)CC1` ?
OUT: 4.46

IN: Name the recorded IC50 for Nc1ccn([C@@H]2O[C@H](CO)[C@@H](O)C2(F)F)c(=O)n1 [GEMCITABINE HYDROCHLORIDE] .
OUT: 2130

IN: What does the data say about its IC50? Entry: `N#Cc1c(NNC(N)=S)nc(SCc2nc3ccccc3[nH]2)nc1-c1ccccc1`
OUT: 3.37

IN: State the recorded IC50 for this entry: `N#Cc1c(Nc2nccs2)nc(SCc2nc3ccccc3[nH]2)nc1-c1ccccc1`
OUT: 3.37

IN: Which IC50 value belongs to `N#Cc1c(Cl)nc(SCc2nc3ccccc3[nH]2)nc1-c1ccccc1` ?
OUT: 3.28

IN: So what's the measured IC50 for this one? `N#Cc1c(O)nc(SCc2nc3ccccc3[nH]2)nc1-c1ccccc1`
OUT: 2.5

meta.source: ChEMBL document CHEMBL1165908
